Listing of entries alongside the reported melting point.

Below, 3 compounds whose answers are already recorded.
smiles_data	result_type	result
O=C(O)COc1ccc(SCc2cccc(OCc3ccc(C(F)(F)F)cc3)c2)c2c1CCCO2	melting point	113 to 115 °C
O=C(O)COc1ccc(SCc2ccc(OCc3cc(Cl)cc(Cl)c3)cc2)c2c1CCC2	melting point	134 to 135 °C
O=C(O)COc1ccc(SCc2cc(-c3ccc(Cl)cc3)on2)c2c1CCCO2	melting point	181 to 183 °C

Consider the record given below.
Supply measured melting point of Cc1cc(SCc2ccc(OCc3ccc(OC(F)(F)F)cc3)cc2)ccc1OCC(=O)O in your reply.
141 to 142 °C

###

Target: hPPARα (Homo sapiens, UniProt Q07869)
Sequence (Q07869 200-468 limits assumed): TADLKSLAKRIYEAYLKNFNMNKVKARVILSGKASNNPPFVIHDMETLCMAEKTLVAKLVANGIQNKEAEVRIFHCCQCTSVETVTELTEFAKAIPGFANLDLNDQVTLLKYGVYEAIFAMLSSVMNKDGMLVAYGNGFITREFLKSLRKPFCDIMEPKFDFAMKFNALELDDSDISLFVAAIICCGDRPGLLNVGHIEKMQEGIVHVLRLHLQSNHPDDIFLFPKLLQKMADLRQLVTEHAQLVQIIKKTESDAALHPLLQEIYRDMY
Assay: Transient transfection assay in HepG2 cells, Gal4-hPPARα chimeric receptor, luciferase reporter
Assay type: cell-based
Details: Hep G2-hAlpha EC50, 24 hours incubation; read-out: EC50α nM (Group)
Source text: 1. Test A. Transient Transfections Assay using the HepG2 Hepatoma Cell Line. HepG2 cells were transiently transfected with an expression plasmids encoding hPPARα, hPPARβ or mPPARγ chimeric receptors and a reporter containing the yeast upstream activating sequence (UAS) upstream of the viral E1B promoter controlling a luciferase reporter gene. In addition, the plasmid pRSVβ-gal was used to control for transfection efficiency. […]
result_type: EC50

Below, 4 compounds whose answers are already recorded.
compound	result_type	result
Cc1cc(SCc2ccc(-c3ccc(C(F)(F)F)cc3)cc2)c(Cl)cc1OCC(=O)O [Example 20]	EC50	2000 to 5000 nM
O=C(O)COc1ccc(SCc2ccc(OCc3ccc(F)c(C(F)(F)F)c3)cc2)c2c1CCC2 [Example 74]	EC50	2000 to 5000 nM
COc1cc(OCC(=O)O)c(C)cc1SCc1ccc(-c2ccc(Cl)cc2Cl)cc1 [Example 7]	EC50	< 300 nM
Cc1cc(SCc2ccc(OCc3ccc(F)cc3F)cc2)ccc1OCC(=O)O [Example 31]	EC50	1000 to 2000 nM

Supply measured EC50 of COc1cc(OCC(=O)O)c(C)cc1SCc1ccc(-c2cccc(OC(F)(F)F)c2)cc1 [Example 11] in your reply.
500 to 1000 nM

Supply measured EC50 of COc1cc(OCC(=O)O)c(C)cc1SCc1ccc(-c2ccc(C(F)(F)F)cn2)cc1 [Example 18] in your reply.
> 5000 nM

Supply measured EC50 of COc1cc(OCC(=O)O)c(C)cc1SCc1ccc(/C=C/c2cccc(F)c2)cc1 [Example 29] in your reply.
< 300 nM

Supply measured EC50 of COc1cc(OCC(=O)O)c(C)cc1SCc1ccc(-c2ccc(C(F)(F)F)cc2)nc1 [Example 19] in your reply.
< 300 nM

###

Molecular target: hPPARβ (Homo sapiens)
Sequence (Q03181 171-441 limits assumed): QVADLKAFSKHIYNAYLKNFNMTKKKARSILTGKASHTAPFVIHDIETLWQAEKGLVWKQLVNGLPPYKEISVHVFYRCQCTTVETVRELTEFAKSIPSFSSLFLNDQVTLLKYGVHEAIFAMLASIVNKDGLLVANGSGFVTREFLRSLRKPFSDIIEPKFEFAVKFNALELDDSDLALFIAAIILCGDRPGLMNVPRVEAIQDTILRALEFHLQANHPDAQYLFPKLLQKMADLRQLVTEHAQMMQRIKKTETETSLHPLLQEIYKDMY
Experiment: Transient transfection assay in HepG2 cells, Gal4-hPPARβ chimeric receptor, luciferase reporter
Format: cell-based
Conditions: Hep G2-hBeta EC50, 24 hours incubation; read-out: EC50β nM (Group)
Listing of entries alongside the reported EC50.

Supply measured EC50 of COc1cc(OCC(=O)O)c(C)cc1S(=O)(=O)Cc1ccc(-c2ccc(C(F)(F)F)cc2)cc1 in your reply.
2000 to 5000 nM

Supply measured EC50 of COc1ccc(COc2ccc(CSc3ccc(OCC(=O)O)c(C)c3)cc2)cc1 in your reply.
1000 to 2000 nM

Supply measured EC50 of O=C(O)COc1ccc(SCc2cccc(-c3ccc(C(F)(F)F)cc3)c2)c2c1CCC2 in your reply.
< 300 nM

###

molecular target: UniProt:Q03181; experiment: Transient transfection assay in HepG2 cells, Gal4-hPPARβ chimeric receptor, luciferase reporter; type: cell-based; settings: Hep G2-hBeta EC50, 24 hours incubation; read-out: EC50β nM (Group)
result_type: EC50

Below, 3 molecules whose answers are already recorded.
molecule	result
COc1cc(OCC(=O)O)c(C)cc1SCc1ccc(-c2ccc(C(F)(F)F)cn2)cc1 [Example 18]	< 300 nM
O=C(O)COc1ccc(SCc2ccc(-c3ccc(C(F)(F)F)cc3)cc2)c2c1CCC2 [Example 12]	< 300 nM
Cc1cc(SCc2ccc(OCc3ccc(OC(F)(F)F)cc3)cc2)ccc1OCC(=O)O [Example 35]	300 to 500 nM

Consider the record given below.
Supply measured EC50 of O=C(O)COc1ccc(SCc2cc(-c3ccc(C(F)(F)F)cc3)on2)c2c1CCC2 [Example 44] in your reply.
500 to 1000 nM

###

Listing of entries alongside the reported EC50.
Target: hPPARβ (Homo sapiens, UniProt Q03181)
Sequence (Q03181 171-441 limits assumed): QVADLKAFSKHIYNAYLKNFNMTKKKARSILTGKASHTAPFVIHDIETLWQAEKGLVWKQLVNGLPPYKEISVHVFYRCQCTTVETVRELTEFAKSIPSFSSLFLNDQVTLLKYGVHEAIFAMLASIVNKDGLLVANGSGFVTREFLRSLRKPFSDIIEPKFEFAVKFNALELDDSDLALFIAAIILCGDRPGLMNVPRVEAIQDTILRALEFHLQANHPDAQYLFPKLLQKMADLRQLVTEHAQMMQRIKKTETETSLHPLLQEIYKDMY
Test: Transient transfection assay in HepG2 cells, Gal4-hPPARβ chimeric receptor, luciferase reporter
Type: cell-based
Conditions: Hep G2-hBeta EC50, 24 hours incubation; read-out: EC50β nM (Group)

Below, 6 compounds whose answers are already recorded.
smiles_data	assayed_target	EC50
O=C(O)COc1ccc(SCc2cc(-c3ccc(C(F)(F)F)cc3)no2)c2c1CCC2	hPPARβ (Homo sapiens, UniProt Q03181)	1000 to 2000 nM
Cc1cc(SCc2ccc(Oc3ccccc3)cc2)ccc1OCC(=O)O	hPPARβ (Homo sapiens, UniProt Q03181)	> 5000 nM
Cc1onc(-c2c(Cl)cccc2Cl)c1CSc1ccc(OCC(=O)O)c2c1CCC2	hPPARβ (Homo sapiens, UniProt Q03181)	> 5000 nM
COc1cc(OCC(=O)O)c(C)cc1SCc1cccc(-c2ccc(C(F)(F)F)cc2)c1	hPPARβ (Homo sapiens, UniProt Q03181)	< 300 nM
Cc1cc(SCc2ccc(OCc3ccc(F)cc3)cc2)ccc1OCC(=O)O	hPPARβ (Homo sapiens, UniProt Q03181)	2000 to 5000 nM
O=C(O)COc1ccc(SCc2cccc(OCc3ccc(C(F)(F)F)cc3)c2)c2c1CCC2	hPPARβ (Homo sapiens, UniProt Q03181)	300 to 500 nM

Supply measured EC50 of O=C(O)COc1ccc(SCc2ccc(Cc3ccc(C(F)(F)F)cc3)cc2)c2c1CCC2 in your reply.
500 to 1000 nM

Supply measured EC50 of Cc1cc(SCc2ccc(OCc3ccccn3)cc2)ccc1OCC(=O)O in your reply.
> 5000 nM

Supply measured EC50 of O=C(O)COc1ccc(SCc2ccc(OCc3ccc(Cl)cc3Cl)cc2)c2c1CCC2 in your reply.
1000 to 2000 nM

Supply measured EC50 of COc1cc(OCC(=O)O)c(C)cc1SCc1ccc(-c2cccc(C(F)(F)F)c2)cc1 in your reply.
< 300 nM

Supply measured EC50 of CCCc1cc(SCc2ccc(-c3ccc(C(F)(F)F)cc3)cc2)ccc1OCC(=O)O in your reply.
< 300 nM

Supply measured EC50 of COc1cc(OCC(=O)O)c(C)cc1SCc1ccc(-c2c(C)cc(C)cc2C)cc1 in your reply.
1000 to 2000 nM

Supply measured EC50 of COc1cc(OCC(=O)O)c(C)cc1SCc1ccc(-c2ccc(C(F)(F)F)cc2)cc1C in your reply.
< 300 nM

Supply measured EC50 of COc1cc(OCC(=O)O)c(C)cc1SCc1cc(-c2ccc(Cl)cc2)on1 in your reply.
< 300 nM

Supply measured EC50 of O=C(O)COc1ccc(SCc2ccc(OCc3ccc(Cl)cc3)cc2)c2c1CCC2 in your reply.
500 to 1000 nM

Supply measured EC50 of O=C(O)COc1ccc(SCc2ccc(OCc3cc(Cl)cc(Cl)c3)cc2)c2c1CCC2 in your reply.
300 to 500 nM

Supply measured EC50 of Cc1cc(SCc2ccc(OCc3cc(Cl)ccc3Cl)cc2)ccc1OCC(=O)O in your reply.
1000 to 2000 nM

Supply measured EC50 of O=C(O)COc1ccc(SCc2ccc(-c3ccc(C(F)(F)F)cn3)cc2)c2c1CCC2 in your reply.
< 300 nM
